- PROCEDURE DETAILS: Cytotoxicity against African green monkey Vero cells assessed as reduction in cell viability measured after 72 hrs by MTT assay
- Assay type: toxicity, cell-based
- CONDITION CONTEXT: chlorocebus sabaeus
Task for the reader: assign each of the following compounds its reported CC50 at 72 h.
Numbers only; they are read as µM.

Could you tell me which CC50 at 72 h is on file for COc1cc2[nH]c3c(OC)c(OC)ccc3c(=O)c2c(OC)c1OC ? 1640

Could you tell me which CC50 at 72 h is on file for COc1cc(O)c2c(c1)oc(=O)c1c3cc(O)c(O)cc3oc21 ? 374

Could you tell me which CC50 at 72 h is on file for Oc1cc(O)c2c(O)c3cc4ccccc4cc3nc2c1 ? 1530
